Source of measurements: ChEMBL document CHEMBL3526054

target: UniProt P10635; assay: Inhibition of catalytic activity of recombinant human CYP2D6 expressed in Escherichia coli co-expressing P450 reductase assessed as loss of ability to bind CO at 16 uM after <15 mins by […] in presence of NADPH; format: ADME
reportedMetric: inhibition at 0.25 h, 16 µM

| inputSmiles | subjectOfTest | reportedMetric | result |
| --- | --- | --- | --- |
| Fc1cnc(N2CCN(Cc3cnc(-c4ccccc4)[nH]3)CC2)nc1 | UniProt P10635 | inhibition at 0.25 h, 16 µM | 25% |

* * *

biological target: Cytochrome P450 2D6 (Homo sapiens); experiment: Binding affinity to recombinant human CYP2D6 expressed in Escherichia coli co-expressing P450 reductase by spectral analysis; details: read-out: Ks

| inputSmiles | Kd [nM] |
| --- | --- |
| Fc1cnc(N2CCN(Cc3cnc(-c4ccccc4)[nH]3)CC2)nc1 | 390 |

* * *

target: CYP2D6 (Homo sapiens, UniProt P10635); assay: Inhibition of catalytic activity of […] assessed as loss of native heme in hemochrome at 16 uM after <15 mins by HPLC analysis in presence of NADPH; format: ADME
Sequence (P10635 whole entry): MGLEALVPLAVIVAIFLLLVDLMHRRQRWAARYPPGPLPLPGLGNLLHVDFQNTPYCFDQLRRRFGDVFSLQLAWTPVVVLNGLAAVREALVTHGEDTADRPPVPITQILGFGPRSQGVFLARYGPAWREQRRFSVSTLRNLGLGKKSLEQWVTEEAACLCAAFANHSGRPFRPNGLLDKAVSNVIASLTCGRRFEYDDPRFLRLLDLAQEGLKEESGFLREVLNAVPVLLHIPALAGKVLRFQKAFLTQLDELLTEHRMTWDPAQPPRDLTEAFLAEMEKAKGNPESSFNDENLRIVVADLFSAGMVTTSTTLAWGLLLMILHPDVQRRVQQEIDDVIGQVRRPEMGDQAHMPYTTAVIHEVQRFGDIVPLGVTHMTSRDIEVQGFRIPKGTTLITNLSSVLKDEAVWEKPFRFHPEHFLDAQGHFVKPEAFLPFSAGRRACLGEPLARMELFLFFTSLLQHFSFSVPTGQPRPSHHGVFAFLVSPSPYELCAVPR

| inputSmiles | inhibition at 0.25 h, 16 µM |
| --- | --- |
| Fc1cnc(N2CCN(Cc3cnc(-c4ccccc4)[nH]3)CC2)nc1 | 25% |

* * *

target: UniProt P10635; experiment: Inhibition of catalytic activity of recombinant human CYP2D6 expressed in Escherichia coli co-expressing P450 reductase assessed as loss of native heme in hemochrome at 16 uM after <15 mins by hemochrome assay in presence of NADPH; type: ADME

| inputSmiles | inhibition at 0.25 h, 16 µM (%) |
| --- | --- |
| Fc1cnc(N2CCN(Cc3cnc(-c4ccccc4)[nH]3)CC2)nc1 | 15 |
